Biological target: T1, mouse IL-2Rα, recombinant protein (mouse, UniProt P01590 22-236, limits assumed)
T1 construct: also called moIL2R-a
T1 sequence (looked up): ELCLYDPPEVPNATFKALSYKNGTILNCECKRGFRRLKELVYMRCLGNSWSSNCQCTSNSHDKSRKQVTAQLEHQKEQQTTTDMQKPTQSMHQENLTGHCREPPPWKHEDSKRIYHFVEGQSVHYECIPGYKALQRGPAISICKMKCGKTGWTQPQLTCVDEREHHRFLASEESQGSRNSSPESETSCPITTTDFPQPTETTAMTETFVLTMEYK
Assay: P.E. off-rate SPR
Experimental Readout: koff
Could you kindly put the unit after your number?

- 11-MP05H04 VHH (periplasmic extract) (VHH, soluble VHH in periplasmic extract) VHH: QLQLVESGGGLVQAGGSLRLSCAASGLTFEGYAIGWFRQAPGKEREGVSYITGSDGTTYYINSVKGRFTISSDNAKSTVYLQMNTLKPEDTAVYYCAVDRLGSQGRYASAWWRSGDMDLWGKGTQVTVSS: 0.00163 s⁻¹
- 9-MP05G01 VHH (periplasmic extract) (VHH, soluble VHH in periplasmic extract) VHH: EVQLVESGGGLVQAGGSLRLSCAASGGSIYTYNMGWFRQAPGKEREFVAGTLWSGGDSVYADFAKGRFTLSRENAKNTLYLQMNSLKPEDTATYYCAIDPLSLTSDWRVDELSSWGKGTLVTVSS: 0.0442 s⁻¹

The reported value for 4-MP01F04 VHH (periplasmic extract) (VHH, soluble VHH in periplasmic extract) VHH: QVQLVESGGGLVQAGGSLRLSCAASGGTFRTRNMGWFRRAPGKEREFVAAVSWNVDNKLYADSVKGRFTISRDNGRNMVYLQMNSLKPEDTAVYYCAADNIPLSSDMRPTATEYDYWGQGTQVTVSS in terms of koff is 0.256 s⁻¹

Lab note: measured koff of 12-MP05B12 VHH (periplasmic extract) (VHH, soluble VHH in periplasmic extract) VHH: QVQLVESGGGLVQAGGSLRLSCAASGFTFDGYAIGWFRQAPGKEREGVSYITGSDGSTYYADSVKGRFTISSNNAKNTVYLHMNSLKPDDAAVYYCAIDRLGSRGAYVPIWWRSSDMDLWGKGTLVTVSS was 0.000547 s⁻¹
